Where do these numbers come from? They come from patent US20210198277A1.

- tgt: EHMT1 (Homo sapiens, UniProt Q9H9B1)
- Sequence (Q9H9B1 whole entry, species assumed): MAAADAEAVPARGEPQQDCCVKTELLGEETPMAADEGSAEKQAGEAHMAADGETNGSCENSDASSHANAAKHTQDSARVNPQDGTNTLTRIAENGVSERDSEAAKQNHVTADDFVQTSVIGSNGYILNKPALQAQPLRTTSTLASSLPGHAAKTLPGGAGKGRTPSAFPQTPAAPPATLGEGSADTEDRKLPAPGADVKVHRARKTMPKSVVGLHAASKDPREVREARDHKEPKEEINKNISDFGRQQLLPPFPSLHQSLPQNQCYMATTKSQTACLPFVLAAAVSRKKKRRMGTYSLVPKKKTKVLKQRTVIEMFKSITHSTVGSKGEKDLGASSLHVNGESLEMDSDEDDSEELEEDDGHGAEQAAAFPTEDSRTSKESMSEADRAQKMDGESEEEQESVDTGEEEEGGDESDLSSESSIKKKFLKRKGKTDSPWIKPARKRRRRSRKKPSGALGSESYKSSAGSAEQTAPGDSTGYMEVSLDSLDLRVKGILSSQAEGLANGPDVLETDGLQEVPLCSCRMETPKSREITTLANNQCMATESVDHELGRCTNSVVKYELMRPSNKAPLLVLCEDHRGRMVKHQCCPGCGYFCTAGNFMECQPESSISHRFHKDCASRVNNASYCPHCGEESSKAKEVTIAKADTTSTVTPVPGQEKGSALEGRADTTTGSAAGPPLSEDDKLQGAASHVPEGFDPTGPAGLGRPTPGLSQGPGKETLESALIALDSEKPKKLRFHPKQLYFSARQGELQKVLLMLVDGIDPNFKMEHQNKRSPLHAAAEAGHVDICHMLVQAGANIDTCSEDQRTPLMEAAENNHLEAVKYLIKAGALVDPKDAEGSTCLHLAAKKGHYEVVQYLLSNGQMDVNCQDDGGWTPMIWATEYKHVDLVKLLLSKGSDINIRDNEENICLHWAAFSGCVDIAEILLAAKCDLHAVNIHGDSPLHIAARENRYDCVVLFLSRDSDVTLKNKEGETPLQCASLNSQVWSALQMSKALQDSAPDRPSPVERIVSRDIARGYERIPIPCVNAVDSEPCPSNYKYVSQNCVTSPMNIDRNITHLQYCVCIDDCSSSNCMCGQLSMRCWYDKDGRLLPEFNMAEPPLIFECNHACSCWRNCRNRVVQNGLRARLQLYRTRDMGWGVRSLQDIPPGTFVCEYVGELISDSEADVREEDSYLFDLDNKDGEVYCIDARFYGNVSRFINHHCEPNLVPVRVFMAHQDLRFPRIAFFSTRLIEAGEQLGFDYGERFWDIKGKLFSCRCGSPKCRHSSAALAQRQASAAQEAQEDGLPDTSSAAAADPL
- assay info: EHMT1 enzyme assay on peptide substrate (EHMT1 PEP)
- Assay type: biochemical
- recorded conditions: read-out: EHMT1 PEP (IC50 μM)
// reported IC50 for each item listed

Use the examples below as a reference point.
# compound, measured quantity, val
data = [
    ("CNc1cc(C)nc(Nc2ccc(OC)c(OCCCN3CCC4(CC4)C3)c2)n1", "IC50", "0.1 to 1 µM"),
    ("c1nc(NC2CCNCC2)ncc1OCCCN1CCCC1", "IC50", "> 10 µM"),
    ("CNc1cc(C)nc(Nc2ccc(OC)c(OCCCN3CCCC3C)c2)n1 (stereo not shown)", "IC50", "0.1 to 1 µM"),
    ("CN1CCC(COc2ccc(NC3CCNCC3)nc2)C1 (stereo not shown)", "IC50", "> 10 µM"),
]

Query: Which value of IC50 has been reported for COc1cnc(Nc2nc(C)cc3[nH]ccc23)cc1OC[C@@H]1CCN(C2CC2)C1 in the records?
Result: < 0.1 µM

Query: Which value of IC50 has been reported for COc1cnc(Nc2cccc3[nH]ncc23)cc1OCCCN1CCCC1 in the records?
Result: > 10 µM

Query: Which value of IC50 has been reported for CCCC1(Nc2nccc(NC)n2)CCNCC1 in the records?
Result: > 10 µM

Query: Which value of IC50 has been reported for CN1CCC(COc2cnc(NCC3CCOCC3)nc2)C1 (stereo not shown) in the records?
Result: > 10 µM

Query: Which value of IC50 has been reported for CNc1cc(C)nc(Nc2ccc(OC)c(OCC3CN(C(C)C)C3)c2)n1 [Compound 575] in the records?
Result: 0.1 to 1 µM

Query: Which value of IC50 has been reported for CNc1cc(C)nc(Nc2ccc(OC)c(OCCCN3CC(O)C3)c2)n1 in the records?
Result: < 0.1 µM

Query: Which value of IC50 has been reported for CNc1cc(C)nc(Nc2ccc(OC)c(OCC3CCN(CCO)C3)c2)n1 (stereo not shown) in the records?
Result: < 0.1 µM

Query: Which value of IC50 has been reported for COc1ncc(Nc2nc(C)cc(NCC3CCOCC3)n2)cc1OC[C@@H]1CCN(C(C)C)C1 in the records?
Result: 0.1 to 1 µM

Query: Which value of IC50 has been reported for CNc1cc(C)nc(Nc2ccc(OC)c(OC[C@@H]3CCN(C4(C)CC4)C3)c2)n1 in the records?
Result: < 0.1 µM

Query: Which value of IC50 has been reported for CNc1cc(C)nc(Nc2ccc(OC)c(OC3CCN(C4CC4)CC3)c2)n1 in the records?
Result: > 10 µM

Query: Which value of IC50 has been reported for C/C=C/C(=O)Nc1cc(OCCCN2CCCC2)c(OC)cn1 in the records?
Result: > 10 µM

Query: Which value of IC50 has been reported for COc1cc(NC2CCCNC2)ccc1OCCCN1CCCC1 (stereo not shown) in the records?
Result: 1 to 10 µM

Query: Which value of IC50 has been reported for CCN1CC[C@@H](COc2cc(Nc3nc(C)cc(NC)n3)cnc2OC)C1 in the records?
Result: < 0.1 µM

Query: Which value of IC50 has been reported for COc1cnc(Nc2cc(NCC3CCOCC3)cc(C)n2)cc1OCCCN1CCCC1 in the records?
Result: 0.1 to 1 µM

Query: Which value of IC50 has been reported for CCN1CC[C@@H](COc2cc(Nc3nc(C)cc(NC)n3)ccc2OC)C1 in the records?
Result: < 0.1 µM
